Each record here notes measured Affinity.
Biological target: Muscarinic acetylcholine receptor M1 (Homo sapiens) (UniProt P11229)
Sequence (P11229 whole entry): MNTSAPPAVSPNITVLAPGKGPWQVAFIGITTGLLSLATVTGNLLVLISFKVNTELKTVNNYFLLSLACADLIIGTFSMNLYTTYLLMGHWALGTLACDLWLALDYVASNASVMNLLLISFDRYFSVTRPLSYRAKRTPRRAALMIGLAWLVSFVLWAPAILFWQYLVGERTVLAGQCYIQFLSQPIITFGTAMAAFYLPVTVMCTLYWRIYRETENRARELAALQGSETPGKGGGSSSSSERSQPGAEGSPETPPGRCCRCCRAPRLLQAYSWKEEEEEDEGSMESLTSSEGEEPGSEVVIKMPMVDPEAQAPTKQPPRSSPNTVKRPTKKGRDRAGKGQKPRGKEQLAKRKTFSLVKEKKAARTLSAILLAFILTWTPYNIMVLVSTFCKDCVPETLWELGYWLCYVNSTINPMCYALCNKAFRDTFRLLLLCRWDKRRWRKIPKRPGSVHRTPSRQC
Assay: Binding affinity at the NMS liganded human muscarinic acetylcholine receptor M1 was estimated as log affinity (log1/M)
Note: the reply should be a number with no unit written.

// fetch Affinity; item: CCC[N+]12CC[C@@]34c5ccccc5N5C(=O)C[C@@H]6OCC=C(C1)[C@H](C[C@@H]32)[C@@H]6[C@H]54 (stereo not given in full) ; system: Muscarinic acetylcholine receptor M1 (Homo sapiens) (UniProt P11229)
4.8

Report its Affinity with Muscarinic acetylcholine receptor M1 (Homo sapiens) (UniProt P11229) as the test system: O=C1C[C@@H]2OCC=C3C[N+]4(CC5CCCCC5)CC[C@]56c7ccccc7N1[C@H]5[C@H]2[C@H]3C[C@@H]64 (stereo not given in full)
4.8

# assay system Muscarinic acetylcholine receptor M1 (Homo sapiens) (UniProt P11229): give Affinity of N#CC[N+]12CC[C@@]34c5ccccc5N5C(=O)C[C@@H]6OCC=C(C1)[C@H](C[C@@H]32)[C@@H]6[C@H]54 (stereo not given in full)
4.3
